Answer each item with its documented Stability (T1/2 (h)).
Target: T1, HLA class I molecule A02.01
T1 construct: Purified MHC class I complex; also called HLA-A02:01
Assay: pMHC-I dissociation half-life, 125I-b2m
Unit h implied. Number only.

Short answer for QQQSDLQPPA (also called MYC, E39D) : Stability (T1/2 (h)) was 0

Short answer for FELLPIPPL (also called MYC, T58I) : Stability (T1/2 (h)) was 0

Short answer for LLQEFDVQEA (also called NDRG1: ERG) : Stability (T1/2 (h)) was 2.5

Short answer for QQSDLQPPA (also called MYC, E39D) : Stability (T1/2 (h)) was 0
